Each entry below carries its reported GI50.
Tested on: SK-MEL-28
EXPERIMENTAL PROTOCOL: NCI tumour cell line growth inhibition, 48 h
Active and inactive are the calls of the source. Cut-off read from the data, not from the text of the source: active = GI50 up to about 1.1 µM and inactive = higher.

Look over these answered cases.
| MOLECULE | TEST SYSTEM | GI50 |
| --- | --- | --- |
| C#CC1(O)CCC2[C@@H]3CCc4cc(Oc5nc(F)nc(-c6c7ccccc7cn6C)n5)ccc4C3CC[C@@]21C (stereo partly drawn) | SK-MEL-28 | > 100 µM (inactive) |
| CCOC(=O)c1nc(SC)sc1NC(=O)c1ccc(OC)cc1 | SK-MEL-28 | 75 µM (inactive) |

GI50 on SK-MEL-28 for CCOC(=O)C1C2C1C1C(C(=O)OCC)C21 (stereo not drawn) is > 100 µM (inactive)

====

System: OVCAR-4
EXPERIMENTAL PROTOCOL: NCI tumour cell line growth inhibition, 48 h
Calls of active or inactive are those of the source. Cut-off read from the data, not from the text of the source: active = GI50 up to about 1.1 µM and inactive = higher.
TEST READOUT: GI50

The examples below pair each entry with its known result.
| MOLECULE | GI50 |
| --- | --- |
| OCCN(CCO)c1ncnc2c1sc(=S)n2-c1ccccc1 | > 100 µM (inactive) |
| C[C@]12CC[C@H]3[C@@H](CC=C4C[C@@H](O)CC[C@@]43C)[C@@H]1C/C(=C\c1cccnc1)[C@@H]2O | 4.68 µM (inactive) |
| CCOC(=O)C(NC(=O)c1ccc(/N=N/N(C)C)cc1)C(C)C (configuration not stated) | > 100 µM (inactive) |
| O=C1NC(Nc2ccccc2)=NC(C(F)(F)F)(C(F)(F)F)N1 | 39.6 µM (inactive) |
| Cn1c(=O)c2nc(CCCCC(=O)O)[nH]c2n(C)c1=O | > 100 µM (inactive) |

Record summary for `CCc1n[nH]c(=O)n1/N=C/c1ccccc1O` : reported GI50 = > 100 µM (inactive)

# GI50 (molecule: `O=C(O)c1ccc(Nc2nc3cc(C(F)(F)F)ccc3nc2C(=O)O)cc1` ) is > 100 µM (inactive)

GI50 reported for this molecule COC(=O)CC1(O)C(=O)OCc2c1cc1n(c2=O)Cc2c-1nc1ccccc1c2OC (configuration not stated) : 4.82 µM (inactive)

// GI50 lookup, molecule = `COc1ccc2nc3cc(Cl)ccc3c(Nc3ccccc3-c3ccccc3Nc3c4ccc(Cl)cc4nc4ccc(OC)cc34)c2c1` , result: 17.4 µM (inactive)

Lab note: measured GI50 of Cc1ccc(S(=O)(=O)CC2(Br)CCc3ccccc3C2=O)cc1 (configuration not stated) was 27.7 µM (inactive)

In plain terms, `NCC1CCN(c2nc3ccccc3c3c2CCCC3)CC1` has a documented GI50 of 10.5 µM (inactive)

Lookup result for `CC1=C(O)C(=O)c2ccccc2C1=O` ; measured GI50: > 100 µM (inactive)

====

Test system: CAKI-1
EXPERIMENTAL PROTOCOL: NCI tumour cell line growth inhibition, 48 h
The source made the active and inactive calls. Cut-off read from the data, not from the text of the source: active = GI50 up to about 1.1 µM and inactive = higher.
Respond with a class label; see true = active, false = inactive

Consider the following illustrative entries.
| COMPOUND | GROUP |
| --- | --- |
| CC1OC(OC2C(OC(=O)[C@]34CCC(C)(C)C[C@H]3C3=CC[C@@H]5[C@@]6(C)CC[C@H](OC7OC(CO)C(O)C(O)C7OC7OC(CO)C(O)C(O)C7O)C(C)(C)[C@@H]6CC[C@@]5(C)[C@]3(C)CC4)OCC(O)C2O)C(O)C(O)C1OC1OCC(O)C(O)C1O (stereo partly specified) | false |
| CCOC(=O)C1C2C1C1C(C(=O)OCC)C21 (stereo unspecified) | false |
| O=C(CCc1nnc2s/c(=C\c3ccc4c(c3)OCO4)c(=O)n12)Nc1cc(Cl)ccc1Cl | false |
| CC(=O)N[C@@H](Cc1ccc(O)cn1)C(=O)NCc1ccc2c(c1)OCO2 | false |

Q: Called result for O=C(O)CNC(=O)C(CSC(=O)OCC1c2ccccc2-c2ccccc21)NC(=O)CCC(NC(=O)OCC1c2ccccc2-c2ccccc21)C(=O)O (stereo unspecified)
A: false

Q: Assay outcome for `COc1cc(OC)c2c(=O)c(OC)c(-c3ccc4c(c3)OCO4)oc2c1` : what was it?
A: false

Q: Can you look up the reported call for COC1C(O)CC(OC2CC(OC3CC(O[C@@H]4C(=O)c5c(cc6cc(OC7CC(OC8CC(O)C(O)C(C)O8)C(O)C(C)O7)c(C)c(O)c6c5O)C[C@H]4[C@H](OC)C(=O)[C@@H](O)[C@@H](C)O)OC(C)C3O)OC(C)C2O)OC1C (stereo partly specified) for me?
A: true

Q: Can you look up the reported call for CC(C)C1CC(CO)(CNc2cc(Cl)nc(N)n2)C1 (stereo unspecified) for me?
A: false

Q: Recorded call for COc1ccc(-c2cc(-c3ccco3)c(C#N)c(=S)n2C2OC(COC(C)=O)C(OC(C)=O)C(OC(C)=O)C2OC(C)=O)cc1 (stereo unspecified) ?
A: false

Q: // param item: `COC(=O)C(Cc1cc(OC)c(OC)c(OC)c1)C(=O)OC` ; yields the recorded call
A: false

Q: Can you look up the reported call for CCOP(=O)(OCC)C(N)c1ccc(Cl)cc1 (stereo unspecified) for me?
A: false

Q: Please state the recorded outcome for this compound: COc1cccc2c1[C@]1(O)C(O)CCCC21 (stereo partly specified)
A: false

Q: How did this test come out for `COC(=O)[C@@H]1C[C@H]2[C@H](c3ccccc3Br)[C@@H](OC(C)=O)[C@@H](OCc3ccccc3)ON2O1` ?
A: false
